All values here come from ChEMBL document CHEMBL3822356.

Readings of IC50 for the listed compounds
Molecular target: Urotensin-2 receptor (Homo sapiens)
Sequence (Q9UKP6 whole entry): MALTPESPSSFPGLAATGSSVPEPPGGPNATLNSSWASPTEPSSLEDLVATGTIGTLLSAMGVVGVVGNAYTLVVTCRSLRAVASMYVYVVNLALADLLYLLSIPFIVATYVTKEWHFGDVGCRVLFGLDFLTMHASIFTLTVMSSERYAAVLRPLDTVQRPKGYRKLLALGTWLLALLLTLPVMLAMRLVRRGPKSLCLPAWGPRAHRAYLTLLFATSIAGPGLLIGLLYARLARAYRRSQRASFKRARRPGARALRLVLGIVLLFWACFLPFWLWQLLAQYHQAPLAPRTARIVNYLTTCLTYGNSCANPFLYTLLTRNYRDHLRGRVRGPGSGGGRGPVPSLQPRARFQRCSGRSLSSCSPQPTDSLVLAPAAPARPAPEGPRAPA
Assay: Displacement of [125I]-hU2 from human UT2 receptor expressed in CHO cells after 90 mins by gamma counter assay
Where a SMILES comes first, the peptide text is derived from it.
READOUT KIND: IC50

1. CC(C)[C@H](NC(=O)[C@@H]1CSSC[C@H](NC(=O)[C@@H](N)CC(=O)O)C(=O)N[C@@H](Cc2ccccc2)C(=O)NN(Cc2ccc(-c3ccccc3)cc2)S(=O)(=O)N[C@@H](CCCCN)C(=O)N[C@@H](Cc2ccc(O)cc2)C(=O)N1)C(=O)O | > 1000 nM
2. CC(C)[C@H](NC(=O)[C@@H]1CSSC[C@H](NC(=O)[C@@H](N)CC(=O)O)C(=O)N[C@@H](Cc2ccccc2)C(=O)NN(Cc2ccccc2)S(=O)(=O)N[C@@H](CCCCN)C(=O)N[C@@H](Cc2ccc(O)cc2)C(=O)N1)C(=O)O (HELM PEPTIDE1{D.C.F.[NCCCC[C@H](NS(=O)(=O)N(Cc1ccccc1)N[*:1])C(=O)[*:2]].Y.C.V}$PEPTIDE1,PEPTIDE1,2:R3-6:R3$$$V2.0) | > 1000 nM

----------
Molecular target: Urotensin-2 receptor (Rattus norvegicus)
Sequence (whole entry): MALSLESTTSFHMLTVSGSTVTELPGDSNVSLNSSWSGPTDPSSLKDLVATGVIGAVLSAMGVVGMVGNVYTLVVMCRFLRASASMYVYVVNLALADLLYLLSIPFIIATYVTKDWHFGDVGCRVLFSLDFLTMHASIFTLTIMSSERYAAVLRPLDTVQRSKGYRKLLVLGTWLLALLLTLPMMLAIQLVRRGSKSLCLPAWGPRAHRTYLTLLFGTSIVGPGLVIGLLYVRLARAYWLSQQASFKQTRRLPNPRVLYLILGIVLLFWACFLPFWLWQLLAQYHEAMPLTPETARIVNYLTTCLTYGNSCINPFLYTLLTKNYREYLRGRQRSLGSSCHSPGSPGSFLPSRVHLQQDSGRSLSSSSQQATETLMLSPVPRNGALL
Assay: Antagonist activity at UT2 receptor in Sprague-Dawley rat thoracic aorta ring assessed as Emax for URP-induced aortic contractions at 10^-5M relative to KCl
Type: tissue-based
Where a SMILES comes first, the peptide text is derived from it.
READOUT KIND: Emax (%)

1) CC(C)[C@H](NC(=O)[C@@H]1CSSC[C@H](NC(=O)[C@@H](N)CC(=O)O)C(=O)N[C@@H](Cc2ccccc2)C(=O)N[C@@H](Cc2c[nH]c3ccccc23)C(=O)NN(CCCCN)S(=O)(=O)N[C@@H](Cc2ccc(O)cc2)C(=O)N1)C(=O)O (HELM PEPTIDE1{D.C.F.W.[NCCCCN(N[*:1])S(=O)(=O)N[C@@H](Cc1ccc(O)cc1)C(=O)[*:2]].C.V}$PEPTIDE1,PEPTIDE1,2:R3-6:R3$$$V2.0) | 110
2) CC(C)[C@H](NC(=O)[C@@H]1CSSC[C@H](NC(=O)[C@@H](N)CC(=O)O)C(=O)N[C@@H](Cc2ccccc2)C(=O)NN(Cc2ccc(-c3ccccc3)cc2)S(=O)(=O)N[C@@H](CCCCN)C(=O)N[C@@H](Cc2ccc(O)cc2)C(=O)N1)C(=O)O | 69

----------
Quick list: Emax per entry.
Biological target: Urotensin-2 receptor (Rattus norvegicus)
Assay: Antagonist activity at UT2 receptor in Sprague-Dawley rat thoracic aorta ring assessed as Emax for hU2-induced aortic contractions at 10^-5M relative to KCl
Assay type: tissue-based
Where a SMILES comes first, the peptide text is derived from it.
READOUT KIND: Emax (%)

1. CC(C)[C@H](NC(=O)[C@@H]1CSSC[C@H](NC(=O)[C@@H](N)CC(=O)O)C(=O)N[C@@H](Cc2ccccc2)C(=O)N[C@@H](Cc2c[nH]c3ccccc23)C(=O)NN(CCCCN)S(=O)(=O)N[C@@H](Cc2ccc(O)cc2)C(=O)N1)C(=O)O (HELM PEPTIDE1{D.C.F.W.[NCCCCN(N[*:1])S(=O)(=O)N[C@@H](Cc1ccc(O)cc1)C(=O)[*:2]].C.V}$PEPTIDE1,PEPTIDE1,2:R3-6:R3$$$V2.0) | 83
2. CC(C)[C@H](NC(=O)[C@@H]1CSSC[C@H](NC(=O)[C@@H](N)CC(=O)O)C(=O)N[C@@H](Cc2ccccc2)C(=O)NN(Cc2ccc3ccccc3c2)S(=O)(=O)N[C@@H](CCCCN)C(=O)N[C@@H](Cc2ccc(O)cc2)C(=O)N1)C(=O)O | 65
3. CC(C)[C@H](NC(=O)[C@@H]1CSSC[C@H](NC(=O)[C@@H](N)CC(=O)O)C(=O)N[C@@H](Cc2ccccc2)C(=O)NN(Cc2cccc3ccccc23)S(=O)(=O)N[C@@H](CCCCN)C(=O)N[C@@H](Cc2ccc(O)cc2)C(=O)N1)C(=O)O | 29
4. CC(C)[C@H](NC(=O)[C@@H]1CSSC[C@H](NC(=O)[C@@H](N)CC(=O)O)C(=O)N[C@@H](Cc2ccccc2)C(=O)N[C@@H](Cc2c[nH]c3ccccc23)C(=O)NN(CCCCN(C)C)S(=O)(=O)N[C@@H](Cc2ccc(O)cc2)C(=O)N1)C(=O)O (HELM PEPTIDE1{D.C.F.W.[CN(C)CCCCN(N[*:1])S(=O)(=O)N[C@@H](Cc1ccc(O)cc1)C(=O)[*:2]].C.V}$PEPTIDE1,PEPTIDE1,2:R3-6:R3$$$V2.0) | 83
5. CC(C)[C@H](NC(=O)[C@@H]1CSSC[C@H](NC(=O)[C@@H](N)CC(=O)O)C(=O)N[C@@H](Cc2ccccc2)C(=O)NN(Cc2ccccc2)S(=O)(=O)N[C@@H](CCCCN)C(=O)N[C@@H](Cc2ccc(O)cc2)C(=O)N1)C(=O)O (HELM PEPTIDE1{D.C.F.[NCCCC[C@H](NS(=O)(=O)N(Cc1ccccc1)N[*:1])C(=O)[*:2]].Y.C.V}$PEPTIDE1,PEPTIDE1,2:R3-6:R3$$$V2.0) | 87
6. CC(C)[C@H](NC(=O)[C@@H]1CSSC[C@H](NC(=O)[C@@H](N)CC(=O)O)C(=O)N[C@@H](Cc2ccccc2)C(=O)NN(Cc2ccc(-c3ccccc3)cc2)S(=O)(=O)N[C@@H](CCCCN)C(=O)N[C@@H](Cc2ccc(O)cc2)C(=O)N1)C(=O)O | 51
